- System: 188146-221-R-J1-PDC complex spheroid viability
- test: Anticancer human tumor 188146-221-R-J1-PDC patient-derived colon adenocarcinoma cell line growth inhibition [POLQ]
- experimental parameters: curve of first compound; second compound 3.16 µM
measured metric: IC50

Query: Request the reported IC50 associated with C=CC(=O)N1CCN(c2nc(=O)n(-c3c(C)ccnc3C(C)C)c3nc(-c4c(O)cccc4F)c(F)cc23)C(C)C1 (stereo not given) + Cc1cccc(N(C)C(=O)C2C(O)CCN2c2nc(C)cc(C(F)(F)F)c2C#N)c1
Response: > 10 µM

Query: Please report the recorded IC50 for Cn1ncnc1[C@H]1c2n[nH]c(=O)c3cc(F)cc(c23)N[C@@H]1c1ccc(F)cc1 + COC1C(OC(N)=O)C(O)C(Oc2ccc3c(O)c(NC(=O)c4ccc(O)c(CC=C(C)C)c4)c(=O)oc3c2C)OC1(C)C .
Response: > 0.1 µM

Query: // query IC50 value for entry C=CCn1c(=O)c2cnc(Nc3ccc(N4CCN(C)CC4)cc3)nc2n1-c1cccc(C(C)(C)O)n1 + COC1C(OC(N)=O)C(O)C(Oc2ccc3c(O)c(NC(=O)c4ccc(O)c(CC=C(C)C)c4)c(=O)oc3c2C)OC1(C)C
Response: > 1 µM

Query: Consider the compound C#Cc1c(F)ccc2cc(O)cc(-c3ncc4c(N5CC6CCC(C5)N6)nc(OCC56CCCN5CC(F)C6)nc4c3F)c12 (stereo not given) + COC1C(OC(N)=O)C(O)C(Oc2ccc3c(O)c(NC(=O)c4ccc(O)c(CC=C(C)C)c4)c(=O)oc3c2C)OC1(C)C and give its measured IC50.
Response: > 10 µM

Query: For the compound shown here, Nc1ccn(C2OC(CO)C(O)C2(F)F)c(=O)n1 (stereo not given) + COC1C(OC(N)=O)C(O)C(Oc2ccc3c(O)c(NC(=O)c4ccc(O)c(CC=C(C)C)c4)c(=O)oc3c2C)OC1(C)C , give the reported IC50.
Response: < 0.0316 µM

* * *

Field: viability, T/C. Provide a value for each of the compounds that follow.
- System: 188146-221-R-J1-PDC complex spheroid viability
- test: Anticancer human tumor 188146-221-R-J1-PDC cell line growth inhibition [POLQ];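 further: spheroids exposed to compounds for seven days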;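 on viability, T/C: 100% = DMSO vehicle control viability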
- experimental parameters: second compound 10 µM; first compound 0.316 µM; stronger effect = lower value

Query: What value of viability, T/C has been reported for the following compound? O=c1[nH]cc(F)c(=O)[nH]1 + Nc1ccc(C#CCN(C(=O)Cc2ncc(C(F)(F)F)cc2C(F)(F)F)c2ccc(F)cc2)nn1
Response: 85.7%

Query: State the recorded viability, T/C for this entry: O=C(Nc1ccc(O)c(NS(=O)(=O)c2ccc(F)cc2)c1)c1ccc(-c2ccccc2)cc1 + COC1C(OC(N)=O)C(O)C(Oc2ccc3c(O)c(NC(=O)c4ccc(O)c(CC=C(C)C)c4)c(=O)oc3c2C)OC1(C)C
Response: 113%

Query: # query: viability, T/C of entry COc1ccc([C@@H](O)c2cc(-c3ncnc4cc(N5CCOCC5)ccc34)c(F)cc2Cl)nn1 + Nc1ccc(C#CCN(C(=O)Cc2ncc(C(F)(F)F)cc2C(F)(F)F)c2ccc(F)cc2)nn1
Response: 103%

* * *

- System: 188146-221-R-J1-PDC complex spheroid viability
- test: Anticancer human tumor 188146-221-R-J1-PDC cell line growth inhibition [POLQ];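 further: spheroids exposed to compounds for seven days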;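 on viability, T/C: 100% = DMSO vehicle control viability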
- experimental parameters: second compound 0.0316 µM; first compound 0.0316 µM; stronger effect = lower value
Provide the recorded viability, T/C for the entries that follow.

Query: What value of measured viability, T/C is listed for C=CCn1c(=O)c2cnc(Nc3ccc(N4CCN(C)CC4)cc3)nc2n1-c1cccc(C(C)(C)O)n1 + Cc1cccc(N(C)C(=O)C2C(O)CCN2c2nc(C)cc(C(F)(F)F)c2C#N)c1 ?
Response: 104%

Query: Need viability, T/C of COc1ccc([C@@H](O)c2cc(-c3ncnc4cc(N5CCOCC5)ccc34)c(F)cc2Cl)nn1 + COC1C(OC(N)=O)C(O)C(Oc2ccc3c(O)c(NC(=O)c4ccc(O)c(CC=C(C)C)c4)c(=O)oc3c2C)OC1(C)C , thanks.
Response: 105%

Query: Which viability, T/C value is on record for CNCc1ccc(-c2[nH]c3cc(F)cc4c3c2CCNC4=O)cc1 + Cc1cccc(N(C)C(=O)C2C(O)CCN2c2nc(C)cc(C(F)(F)F)c2C#N)c1 ?
Response: 98.6%

Query: // returns reported viability, T/C for input CCc1c2c(nc3ccc(O)cc13)-c1cc3c(c(=O)n1C2)COC(=O)[C@]3(O)CC + Cc1cccc(N(C)C(=O)C2C(O)CCN2c2nc(C)cc(C(F)(F)F)c2C#N)c1
Response: 39.6%

* * *

Could you please report measured viability, T/C for the items listed next?
- Test system: 188146-221-R-J1-PDC complex spheroid viability
- test: Anticancer human tumor 188146-221-R-J1-PDC cell line growth inhibition [POLQ];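 further: spheroids exposed to compounds for seven days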;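 on viability, T/C: 100% = DMSO vehicle control viability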
- experimental parameters: second compound 0.316 µM; first compound 3.16 µM; stronger effect = lower value
Kindly provide the numeric value in % only, without the unit symbol.

Query: Requested read-out viability, T/C, target or system 188146-221-R-J1-PDC complex spheroid viability, entry O=C(Nc1ccc(O)c(NS(=O)(=O)c2ccc(F)cc2)c1)c1ccc(-c2ccccc2)cc1 + COC1C(OC(N)=O)C(O)C(Oc2ccc3c(O)c(NC(=O)c4ccc(O)c(CC=C(C)C)c4)c(=O)oc3c2C)OC1(C)C
Response: 88.2

Query: Recorded viability, T/C for COc1ccc([C@@H](O)c2cc(-c3ncnc4cc(N5CCOCC5)ccc34)c(F)cc2Cl)nn1 + Cc1cccc(N(C)C(=O)C2C(O)CCN2c2nc(C)cc(C(F)(F)F)c2C#N)c1 with 188146-221-R-J1-PDC complex spheroid viability, please?
Response: 59.4

Query: State its viability, T/C on 188146-221-R-J1-PDC complex spheroid viability: CC1COCCN1c1cc(C2(S(C)(=N)=O)CC2)nc(-c2ccnc3[nH]ccc23)n1 (stereo not drawn) + Cc1cccc(N(C)C(=O)C2C(O)CCN2c2nc(C)cc(C(F)(F)F)c2C#N)c1
Response: 68.5

* * *

Exercise: for every item that follows, state its recorded viability, T/C.
- System: 188146-221-R-J1-PDC complex spheroid viability
- test: Anticancer human tumor 188146-221-R-J1-PDC cell line growth inhibition [POLQ];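 further: spheroids exposed to compounds for seven days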;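 on viability, T/C: 100% = DMSO vehicle control viability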
- experimental parameters: second compound 0.0316 µM; first compound 0.316 µM; stronger effect = lower value
Write the value in % as a bare number.

Query: Entry O=C(Nc1ccc(O)c(NS(=O)(=O)c2ccc(F)cc2)c1)c1ccc(-c2ccccc2)cc1 + COC1C(OC(N)=O)C(O)C(Oc2ccc3c(O)c(NC(=O)c4ccc(O)c(CC=C(C)C)c4)c(=O)oc3c2C)OC1(C)C : reported viability, T/C = ?
Response: 99.7

Query: Give the measured viability, T/C of COc1cc(C2c3cc4c(cc3C(OC3OC5COC(C)OC5C(O)C3O)C3COC(=O)C23)OCO4)cc(OC)c1O (centres undefined) + Cc1cccc(N(C)C(=O)C2C(O)CCN2c2nc(C)cc(C(F)(F)F)c2C#N)c1 .
Response: 77.3

Query: State the recorded viability, T/C for this entry: COc1cccc(OCCCN)c1-c1cc(Nc2cnc(C#N)cn2)n[nH]1 + Nc1ccc(C#CCN(C(=O)Cc2ncc(C(F)(F)F)cc2C(F)(F)F)c2ccc(F)cc2)nn1
Response: 16.2

Query: Look at this compound and give its reported viability, T/C. CNCc1ccc(-c2[nH]c3cc(F)cc4c3c2CCNC4=O)cc1 + Nc1ccc(C#CCN(C(=O)Cc2ncc(C(F)(F)F)cc2C(F)(F)F)c2ccc(F)cc2)nn1
Response: 109

Query: Look at this compound and give its reported viability, T/C. CCc1cc2c(N3CCc4c(cc(Cn5ccnc5)cc4-c4cn(C)nc4C(F)(F)F)C3=O)cc(C)nc2c(OC)n1 + COC1C(OC(N)=O)C(O)C(Oc2ccc3c(O)c(NC(=O)c4ccc(O)c(CC=C(C)C)c4)c(=O)oc3c2C)OC1(C)C
Response: 92.1

Query: So what's the measured viability, T/C for this one? C=CC(=O)N1CCN(c2nc(=O)n(-c3c(C)ccnc3C(C)C)c3nc(-c4c(O)cccc4F)c(F)cc23)C(C)C1 (centres undefined) + Cc1cccc(N(C)C(=O)C2C(O)CCN2c2nc(C)cc(C(F)(F)F)c2C#N)c1
Response: 93

Query: Request the reported viability, T/C associated with COc1cccc(OCCCN)c1-c1cc(Nc2cnc(C#N)cn2)n[nH]1 + Cc1cccc(N(C)C(=O)C2C(O)CCN2c2nc(C)cc(C(F)(F)F)c2C#N)c1
Response: 18.5

Query: Look up viability, T/C for this compound: C#Cc1c(F)ccc2cc(O)cc(-c3ncc4c(N5CC6CCC(C5)N6)nc(OCC56CCCN5CC(F)C6)nc4c3F)c12 (centres undefined) + Nc1ccc(C#CCN(C(=O)Cc2ncc(C(F)(F)F)cc2C(F)(F)F)c2ccc(F)cc2)nn1
Response: 98.2

Query: Which viability, T/C value belongs to COc1cc2cc(C(=O)CCC(=O)O)sc2cc1OC + COC1C(OC(N)=O)C(O)C(Oc2ccc3c(O)c(NC(=O)c4ccc(O)c(CC=C(C)C)c4)c(=O)oc3c2C)OC1(C)C ?
Response: 107
